Assay: PK protocol: pharmacokinetic parameters in male Sprague Dawley rats
Assay type: in vivo
Settings: plasma, intravenous administration, rat, dose per compound in Dose column (0.83-5.05 mg/kg)
Endpoint: clearance (mL/min/kg)
One number for each entry, in mL/min/kg.

CC(C)c1cc(F)cc(C(C)C)c1NC(=O)NS(=O)(=O)c1cc(C(=O)N(C)C)n(C)n1 [Example 60] ... 59.2
CN(C)C(=O)c1cc(S(=O)(=O)NC(=O)Nc2c3c(cc4c2CCC4)CCC3)nn1C [Example 69] ... 24.8
CC(C)c1cccc(C(C)C)c1NC(=O)NS(=O)(=O)c1cc(C(=O)N(C)C)n(C)n1 [Example 67] ... 48.7
CCN(C)C(=O)c1cc(S(=O)(=O)NC(=O)Nc2c3c(cc4c2CCC4)CCC3)nn1C [Example 62] ... 25
CC(C)c1cc(Cl)cc(C(C)C)c1NC(=O)NS(=O)(=O)c1cc(C(=O)N(C)C)n(C)n1 [Example 68] ... 161
CC(C)c1cc(F)cc(C(C)C)c1NC(=O)NS(=O)(=O)c1cc(C(=O)N2CCC2)n(C)n1 [Example 45] ... 40.3

Answer with the recorded clearance of CC(C)n1nc(S(=O)(=O)NC(=O)Nc2c3c(cc4c2CCC4)CCC3)cc1C(=O)N1CCC1 [Example 31] only.
55.3
